System: NCI-H1944
Experiment: relative viability (nuclei count vs DMSO), 5 days (fraction); higher = more cells survive
Conditions: first compound 0.3162 µM
readout_kind: relative viability
Quick one: just the number, no unit, thanks!

// below: answered molecules
Challenge: For O=c1cc(N2CCOCC2)oc2c(-c3cccc4c3sc3ccccc34)cccc12 + Cc1cc(Nc2cc(N3CCN(C)CC3)nc(Sc3ccc(NC(=O)C4CC4)cc3)n2)n[nH]1 [Tozasertib] (partner 0.1 µM) , what is its reported relative viability?
Response given: 0.245

Challenge: For CCN(CC)CCCCNc1ncc2cc(-c3cc(OC)cc(OC)c3)c(NC(=O)NC(C)(C)C)nc2n1 + COc1cc2c(Oc3ccc(NC(=O)C4(C(=O)Nc5ccc(F)cc5)CC4)cc3F)ccnc2cc1OCCCN1CCOCC1 [Foretinib] (partner 0.25 µM) , what is its reported relative viability?
Response given: 0.946

Challenge: For CCN(CC)CCCCNc1ncc2cc(-c3cc(OC)cc(OC)c3)c(NC(=O)NC(C)(C)C)nc2n1 + Nc1ncn([C@H]2C[C@H](O)[C@@H](CO)O2)c(=O)n1 [Decitabine] (partner 2 µM) , what is its reported relative viability?
Response given: 0.489

Challenge: For O=c1cc(N2CCOCC2)oc2c(-c3cccc4c3sc3ccccc34)cccc12 + C[C@@H](Oc1cc(-c2cnn(C3CCNCC3)c2)cnc1N)c1c(Cl)ccc(F)c1Cl [Crizotinib] (partner 1 µM) , what is its reported relative viability?
Response given: 1.03

Challenge: For CCN(CC)CCCCNc1ncc2cc(-c3cc(OC)cc(OC)c3)c(NC(=O)NC(C)(C)C)nc2n1 + Cc1cc(Nc2cc(N3CCN(C)CC3)nc(Sc3ccc(NC(=O)C4CC4)cc3)n2)n[nH]1 [Tozasertib] (partner 0.1 µM) , what is its reported relative viability?
Response given: 0.249

Others:
Challenge: For CCN(CC)CCCCNc1ncc2cc(-c3cc(OC)cc(OC)c3)c(NC(=O)NC(C)(C)C)nc2n1 + C[C@@H](Oc1cc(-c2cnn(C3CCNCC3)c2)cnc1N)c1c(Cl)ccc(F)c1Cl [Crizotinib] (partner 1 µM) , what is its reported relative viability?
Response given: 1.35

Challenge: For CCN(CC)CCCCNc1ncc2cc(-c3cc(OC)cc(OC)c3)c(NC(=O)NC(C)(C)C)nc2n1 + Cc1nc(Nc2ncc(C(=O)Nc3c(C)cccc3Cl)s2)cc(N2CCN(CCO)CC2)n1 [Dasatinib] (partner 0.075 µM) , what is its reported relative viability?
Response given: 0.236

Challenge: For O=c1cc(N2CCOCC2)oc2c(-c3cccc4c3sc3ccccc34)cccc12 + CCNC(=O)c1noc(-c2cc(C(C)C)c(O)cc2O)c1-c1ccc(CN2CCOCC2)cc1 [Luminespib] (partner 0.01 µM) , what is its reported relative viability?
Response given: 0.728

Challenge: For O=c1cc(N2CCOCC2)oc2c(-c3cccc4c3sc3ccccc34)cccc12 + Cc1nc(Nc2ncc(C(=O)Nc3c(C)cccc3Cl)s2)cc(N2CCN(CCO)CC2)n1 [Dasatinib] (partner 0.075 µM) , what is its reported relative viability?
Response given: 0.24

Challenge: For O=c1cc(N2CCOCC2)oc2c(-c3cccc4c3sc3ccccc34)cccc12 + COc1cccc2cc(-c3nc([C@H]4CC[C@H](C(=O)O)CC4)n4ncnc(N)c34)[nH]c12 [OSI-027] (partner 0.5 µM) , what is its reported relative viability?
Response given: 0.44

Challenge: For CCN(CC)CCCCNc1ncc2cc(-c3cc(OC)cc(OC)c3)c(NC(=O)NC(C)(C)C)nc2n1 + CCNC(=O)c1noc(-c2cc(C(C)C)c(O)cc2O)c1-c1ccc(CN2CCOCC2)cc1 [Luminespib] (partner 0.01 µM) , what is its reported relative viability?
Response given: 0.822
